System: OVCAR-8 ovarian
experimental.protocol: NCI tumour cell line growth inhibition, 48 h; in the data active means GI50 below about 0.43 µM; inactive means the rest
Classes used: active, inactive

• COc1cccc2c1nc1cccc(OC)c1[n+]2[O-] = inactive
• CN1C(=O)N(C)C2C1NN=c1s/c(=C\c3c[nH]c4ccccc34)c(=O)n12 (stereo not given) = active
• NC(=O)c1ccc2nc(-c3ccc(C4(N)CCC4)cc3)c(-c3ccccc3)n2n1 = inactive
• CC(C)(C)CC(C)(C)N(CSc1ccc(Cl)cc1)CSc1ccc(Cl)cc1 = inactive
• COc1cc[c]([Sb]([Br])([CH]=C(C)C)([CH]=C(C)C)[CH]=C(C)C)cc1 = inactive
